meta.source: PubChem BioAssay (NCI)

# Test system: K-562 leukemia
# assay-procedure: NCI tumour cell line growth inhibition, 48 h; in the data active = GI50 below about 0.43 µM; inactive = the rest
Hi there, use one of these labels in your reply, thanks! class 1 (active), class 0 (inactive)

Worked examples follow.
CCN(CC)c1ccc2[nH]c3c(C(N)=O)cc(=O)c(=O)c=3oc2c1 = class 0
Cc1c(C(=O)CCl)c(=O)n(-c2ccccc2)n1C = class 0
C[C@@H](Oc1cc(-c2cnn(C3CCNCC3)c2)cnc1N)c1c(Cl)ccc(F)c1Cl = class 1
COc1ccc(/C=C(\C#N)n2nnc3cc(Cl)ccc32)cc1 = class 1
COC(=O)/C=C1\SC(=Nc2ccc(C(F)(F)F)cc2)N(CCc2c[nH]c3ccccc23)C1=O = class 0
COc1cccc2c(Nc3ccc(C(=O)NCCNCCO)cc3)cc(-c3ccccc3)nc12 = class 0
CN(C)CCCNC(=O)c1cc(NC(=O)c2cc(NC(=O)CCCN3c4ccccc4C=Cc4ccccc43)cn2C)cn1C = class 0
OCc1ccc(N(Cc2ccc(F)cc2)C2CCC2)cc1Cl = class 0

Q: I would be grateful if you could indicate the recorded call for COc1cc(/C=C2\CC(C)CC3C2=NN(c2ccccc2)C3c2cc(OC)c(OC)c(OC)c2)cc(OC)c1OC (stereo not given) .
A: class 0

Q: Try CCOC(=O)c1sc2ncn(Cc3cccc(Cl)c3)c(=O)c2c1C next.
A: class 0
